Value source: ChEMBL document CHEMBL3045859

# testTarget: UniProt O00519
# experiment: Inhibition of Homo sapiens (human) recombinant fatty acid amide hydrolase assessed as inhibition of [3H]-AEA hydrolysis after 10 min by liquid scintillation counting

# entrySmiles, relationalOperator, IC50 [µM]
data = [
    ("COC(=O)c1ccc(C(=S)N2CCOCC2)cc1", ">", 1000),
    ("Cc1cccc(C(=S)N2CCCCC2)c1", "=", 61.7),
    ("S=C(Cc1ccc(-c2ccccc2)cc1)N1CCOCC1", "=", 30.9),
    ("CN(C)c1ccc(C(=S)N2CCOCC2)cc1", ">", 1000),
    ("Cc1ccc(CC(=S)N2CCOCC2)cc1", "=", 49),
    ("Clc1ccccc1CN1CCOCC1", ">", 1000),
    ("S=C(NCCc1ccccc1)c1ccc(Cl)cc1", "=", 407),
]

###

# testTarget: Fatty-acid amide hydrolase 1 (Homo sapiens)
# Sequence (O00519 whole entry): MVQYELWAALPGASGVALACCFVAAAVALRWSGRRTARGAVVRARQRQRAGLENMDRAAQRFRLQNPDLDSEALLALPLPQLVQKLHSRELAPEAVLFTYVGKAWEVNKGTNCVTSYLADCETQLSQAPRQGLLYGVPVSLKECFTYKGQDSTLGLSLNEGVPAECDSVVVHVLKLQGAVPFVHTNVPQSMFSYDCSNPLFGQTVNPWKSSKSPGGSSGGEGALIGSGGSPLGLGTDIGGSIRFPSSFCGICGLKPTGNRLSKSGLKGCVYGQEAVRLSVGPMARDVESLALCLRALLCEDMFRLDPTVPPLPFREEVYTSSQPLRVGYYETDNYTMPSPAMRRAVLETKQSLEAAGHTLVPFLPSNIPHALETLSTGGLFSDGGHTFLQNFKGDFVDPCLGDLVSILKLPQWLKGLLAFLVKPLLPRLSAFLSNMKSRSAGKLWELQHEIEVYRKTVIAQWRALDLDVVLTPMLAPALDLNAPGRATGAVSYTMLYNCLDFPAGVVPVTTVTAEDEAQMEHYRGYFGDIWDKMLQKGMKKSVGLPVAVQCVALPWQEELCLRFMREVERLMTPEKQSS
# experiment: Inhibition of Homo sapiens (human) recombinant fatty acid amide hydrolase assessed as inhibition of [3H]-AEA hydrolysis after 10 min by liquid scintillation counting
reportedMetric: IC50

# entrySmiles, result
data = [
    ("Fc1ccc(C(=S)NCCc2ccccc2)cc1", "> 1000 µM"),
    ("S=C(c1ccc(Cl)cc1)N1CCOCC1", "302 µM"),
    ("S=C(c1ccccc1)N1CCCCC1", "> 1000 µM"),
    ("c1ccc(-c2ccc(CN3CCOCC3)cc2)cc1", "> 1000 µM"),
    ("S=C(NCCc1ccccc1)c1ccc(Cl)c(Cl)c1", "53.7 µM"),
    ("S=C(Cc1ccc(Cl)cc1)N1CCOCC1", "77.6 µM"),
    ("Oc1ccc(C(=S)NCCc2ccccc2)cc1O", "724 µM"),
]

###

# testTarget: Fatty-acid amide hydrolase 1 (Homo sapiens)
# experiment: Inhibition of Homo sapiens (human) recombinant fatty acid amide hydrolase assessed as inhibition of [3H]-AEA hydrolysis after 10 min by liquid scintillation counting
Reported IC50 values are given for each entry in this list.

# compound, testTarget, IC50
records = [
    ("S=C(c1ccc(Br)cc1)N1CCOCC1 [(4-BROMOPHENYL)(MORPHOLINO)METHANETHIONE]", "Fatty-acid amide hydrolase 1 (Homo sapiens)", "> 1000 µM"),
    ("S=C(c1ccccc1Cl)N1CCOCC1", "Fatty-acid amide hydrolase 1 (Homo sapiens)", "> 1000 µM"),
    ("S=C(c1ccc(-c2ccccc2)cc1)N1CCOCC1", "Fatty-acid amide hydrolase 1 (Homo sapiens)", "30.9 µM"),
    ("S=C(c1ccccc1)N1CCOCC1 [MORPHOLINO(PHENYL)METHANETHIONE]", "Fatty-acid amide hydrolase 1 (Homo sapiens)", "> 1000 µM"),
    ("O=[N+]([O-])c1cccc(C(=S)N2CCOCC2)c1", "Fatty-acid amide hydrolase 1 (Homo sapiens)", "245 µM"),
    ("Oc1ccc(C(=S)N2CCOCC2)cc1", "Fatty-acid amide hydrolase 1 (Homo sapiens)", "562 µM"),
    ("S=C(c1cccc(Cl)c1)N1CCOCC1", "Fatty-acid amide hydrolase 1 (Homo sapiens)", "> 1000 µM"),
    ("O=C(c1ccc(Cl)cc1)N1CCOCC1 [(4-CHLOROPHENYL)(MORPHOLINO)METHANONE]", "Fatty-acid amide hydrolase 1 (Homo sapiens)", "> 1000 µM"),
    ("S=C(NCCc1ccccc1)c1ccc(Cl)cc1Cl", "Fatty-acid amide hydrolase 1 (Homo sapiens)", "> 1000 µM"),
    ("S=C(c1ccc(Cl)cc1Cl)N1CCOCC1", "Fatty-acid amide hydrolase 1 (Homo sapiens)", "> 1000 µM"),
    ("S=C(NCCc1ccccc1)c1ccccc1Cl", "Fatty-acid amide hydrolase 1 (Homo sapiens)", "> 1000 µM"),
    ("S=C(Cc1ccccc1)N1CCOCC1", "Fatty-acid amide hydrolase 1 (Homo sapiens)", "> 1000 µM"),
]
